Values compiled from ChEMBL document CHEMBL1138824.

Target: Beta-secretase (BACE) (Homo sapiens, UniProt Q9Y5Z0+P56817)
Assay: Inhibition of human beta secretase in MBP-C125 assay.
Type: protein assay
Residues, ends and D or L forms follow the SMILES beside them.
Collected IC50 values appear next to each entry.

[
  {
    "Molecule": "CCCN(CCC)C(=O)c1cccc(C(=O)N[C@@H](Cc2cc(F)cc(F)c2)[C@@H](O)C[C@@H](C)C(=O)NCC(C)C)c1",
    "IC50 / nM": 30
  },
  {
    "Molecule": "CC(C)C[C@H](NC(=O)C(O)c1cccc2ccccc12)[C@@H](O)CC(=O)N[C@H](C(=O)N[C@@H](C)C(=O)N[C@@H](CCC(=O)O)C(=O)N[C@@H](Cc1ccccc1)C(=O)O)C(C)C (some centres not stated) (HELM PEPTIDE1{[O=C(C(O)c1cccc2ccccc12)[*:2]].[CC(C)C[C@H](N[*:1])[C@@H](O)CC(=O)[*:2]].V.A.E.F}$$$$V2.0)",
    "IC50 / nM": 4000
  }
]
